tested.on: Glucokinase (GK) (Homo sapiens)
Construct: full-length human glucokinase (GenBank: BC001890.1), C-terminally hexa-histidine tagged
Sequence (P35557 1-465): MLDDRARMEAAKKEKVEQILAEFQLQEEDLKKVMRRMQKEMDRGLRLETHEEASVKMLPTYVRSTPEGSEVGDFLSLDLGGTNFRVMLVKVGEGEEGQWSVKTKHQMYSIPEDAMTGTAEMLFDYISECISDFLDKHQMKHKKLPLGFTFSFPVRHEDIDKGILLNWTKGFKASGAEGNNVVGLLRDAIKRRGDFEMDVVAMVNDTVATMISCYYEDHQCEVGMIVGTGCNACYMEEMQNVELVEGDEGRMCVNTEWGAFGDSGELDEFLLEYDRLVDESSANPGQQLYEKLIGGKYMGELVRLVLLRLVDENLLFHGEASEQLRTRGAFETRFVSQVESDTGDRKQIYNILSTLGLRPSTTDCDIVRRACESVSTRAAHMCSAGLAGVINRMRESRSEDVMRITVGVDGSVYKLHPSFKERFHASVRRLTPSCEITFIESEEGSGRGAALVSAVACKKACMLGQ
protocol.details: biochemical
measured.property: EC50

Tell me the measured EC50 of O=c1c2cc(O)c(O)cc2oc2cc(O)c([C@@H]3O[C@H](CO)[C@@H](O)[C@H](O)[C@H]3O)c(O)c12 , please.
156 µM

---

tested.on: Glucokinase (GK) (Homo sapiens, UniProt P35557)
Construct: gene GCK; full-length human glucokinase (GenBank: BC001890.1), C-terminally hexa-histidine tagged
protocol.details: microscale thermophoresis with labelled recombinant GK; also coupled G6PDH enzyme activation assay (EC50 ca. […])
Format: binding
condition.description: read-out: Dissociation constant with GK / Kd
measured.property: Kd (µM)
# number only, unit µM dropped from output

Find the measured Kd: item O=c1c2cc(O)c(O)cc2oc2cc(O)c([C@@H]3O[C@H](CO)[C@@H](O)[C@H](O)[C@H]3O)c(O)c12 , target or system Glucokinase (GK) (Homo sapiens, UniProt P35557).
472

---

tested.on: Glucokinase (GK) (Homo sapiens, UniProt P35557)
Construct: gene GCK; full-length human glucokinase (GenBank: BC001890.1), C-terminally hexa-histidine tagged
protocol.details: microscale thermophoresis with labelled recombinant GK
Assay type: binding
condition.description: read-out: Dissociation constant with GK / Kd
measured.property: Kd (µM)
Numeric only. Scale: µM

Which Kd value belongs to O=C(Nc1ncc(SCCN2CCCC2)s1)[C@]1(c2ccc(S(=O)(=O)C3CC3)cc2)C[C@H]1C1CCCCC1 ?
600

---

Answer each item with its documented remaining activity at 50 µM.
tested.on: Glucokinase (GK) (Homo sapiens)
Construct: gene GCK; full-length human glucokinase (GenBank: BC001890.1), C-terminally hexa-histidine tagged
protocol.details: biochemical
Set-up: G6PDH-coupled spectrophotometric glucokinase activity, NADPH absorbance at 340 nm, 10 mM glucose, 37 °C
condition.description: untreated GK = 100%; read-out: % of control remaining
# answer = value followed by unit

Reported remaining activity at 50 µM for NC(=O)c1coc(-c2csc(NC(=O)c3ccc(Cl)cc3)n2)c1 [compound 2, 2] : what is it?
86.5%

Any idea what remaining activity at 50 µM was measured for O=c1c2cc(O)c(O)cc2oc2cc(O)c([C@@H]3O[C@H](CO)[C@@H](O)[C@H](O)[C@H]3O)c(O)c12 [compound 7, mangiferin] ?
126%

Any idea what its remaining activity at 50 µM is? The compound is Cc1sc2ncnc(SCC(=O)Nc3c[nH]ccc3=O)c2c1C [compound 5, 5]
87.6%

Any idea what its remaining activity at 50 µM is? The compound is Cc1nc(S)sc1CC(=O)Nc1c[nH]ccc1=O [compound 3, 3]
46.7%

Name the recorded remaining activity at 50 µM for Oc1ccc(Nc2ncnc3sccc23)cc1CN1CCOCC1 [compound 4, 4] .
37.8%

// lookup remaining activity at 50 µM for COc1ccccc1C(=O)Nc1cccc(NC(=O)c2ncc[nH]2)c1 [compound 11, 11]
75.9%

Need remaining activity at 50 µM, item CC(O)CNc1nc2ccccc2n1Cc1nc(N)nc(N(C)C)n1 (centres unmarked) [compound 8, 8]
92%

Query (compound): O=C(Nc1nc(-c2c[nH]c3ccccc23)cs1)c1cnccn1 [compound 1, 1] ; field requested: remaining activity at 50 µM
86.1%

// query remaining activity at 50 µM value for entry O=C1NCC(c2ccc(Cl)cc2)Cc2[nH]c(-c3ncc[nH]3)nc21 (centres unmarked) [compound 10, 10]
94.3%

# input compound: O=C(NCC(c1cccs1)c1c[nH]c2ccccc12)c1ccccn1 (centres unmarked) [compound 6, 6] ; wanted: its remaining activity at 50 µM
90%

Would you kindly share the measured remaining activity at 50 µM for Cn1ccc(NC(=O)N(Cc2ccccc2)CC(O)c2ccco2)n1 (centres unmarked) [compound 9, 9] ?
82.4%
